A short record of pKi observed with 3',5'-cyclic-AMP phosphodiesterase 4B (Homo sapiens, UniProt Q07343) follows.
Sequence (Q07343 whole entry): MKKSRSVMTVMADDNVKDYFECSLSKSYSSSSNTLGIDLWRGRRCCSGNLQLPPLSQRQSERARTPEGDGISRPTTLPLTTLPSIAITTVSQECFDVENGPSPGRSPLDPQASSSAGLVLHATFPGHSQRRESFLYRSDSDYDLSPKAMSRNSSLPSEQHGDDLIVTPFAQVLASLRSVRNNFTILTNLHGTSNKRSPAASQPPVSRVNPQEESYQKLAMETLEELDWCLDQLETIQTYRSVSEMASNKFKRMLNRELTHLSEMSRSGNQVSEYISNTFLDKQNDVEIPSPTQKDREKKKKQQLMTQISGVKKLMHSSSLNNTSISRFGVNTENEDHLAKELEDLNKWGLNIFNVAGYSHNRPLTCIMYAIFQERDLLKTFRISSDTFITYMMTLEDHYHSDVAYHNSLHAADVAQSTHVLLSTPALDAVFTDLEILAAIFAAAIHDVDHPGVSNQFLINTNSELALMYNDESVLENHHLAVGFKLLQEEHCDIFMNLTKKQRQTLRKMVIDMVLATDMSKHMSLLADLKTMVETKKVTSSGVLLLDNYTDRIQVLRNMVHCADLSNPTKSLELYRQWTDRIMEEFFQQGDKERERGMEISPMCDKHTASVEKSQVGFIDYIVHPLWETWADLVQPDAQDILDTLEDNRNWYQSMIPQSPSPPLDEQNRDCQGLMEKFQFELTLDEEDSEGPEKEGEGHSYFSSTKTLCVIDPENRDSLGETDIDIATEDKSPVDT
Please keep in mind that pKi is minus log10 of the molar concentration; only the number is needed.

Fill in: 3',5'-cyclic-AMP phosphodiesterase 4B (Homo sapiens, UniProt Q07343) pKi for COc1ccc([C@@H]2CN(C(=O)OCc3ccccc3)C[C@H]2NS(=O)(=O)c2ccccc2)cc1OC1CCCC1 = 5.35

Fill in: 3',5'-cyclic-AMP phosphodiesterase 4B (Homo sapiens, UniProt Q07343) pKi for COC(=O)[C@@H]1CN(C(=O)OC)C[C@H]1c1ccc(OC)c(OC2CCCC2)c1 = 6.80

Fill in: 3',5'-cyclic-AMP phosphodiesterase 4B (Homo sapiens, UniProt Q07343) pKi for COC(=O)N1C[C@@H]([N+](=O)[O-])[C@H](c2ccc(OC)c(OC3CCCC3)c2)C1 = 7.22

Fill in: 3',5'-cyclic-AMP phosphodiesterase 4B (Homo sapiens, UniProt Q07343) pKi for COC(=O)[C@@H]1CN(C(N)=S)C[C@H]1c1ccc(OC)c(OC2CCCC2)c1 = 6.42

Fill in: 3',5'-cyclic-AMP phosphodiesterase 4B (Homo sapiens, UniProt Q07343) pKi for COC(=O)N1C[C@@H](C(N)=O)[C@H](c2ccc(OC)c(OC3CCCC3)c2)C1 = 5.80
